Property: IC50; scope: individual compounds
# ASSAY_TARGET: Envelope glycoprotein gp160 (Human immunodeficiency virus 1)
# Sequence (Q6QLK5 whole entry, the tested form may be a part): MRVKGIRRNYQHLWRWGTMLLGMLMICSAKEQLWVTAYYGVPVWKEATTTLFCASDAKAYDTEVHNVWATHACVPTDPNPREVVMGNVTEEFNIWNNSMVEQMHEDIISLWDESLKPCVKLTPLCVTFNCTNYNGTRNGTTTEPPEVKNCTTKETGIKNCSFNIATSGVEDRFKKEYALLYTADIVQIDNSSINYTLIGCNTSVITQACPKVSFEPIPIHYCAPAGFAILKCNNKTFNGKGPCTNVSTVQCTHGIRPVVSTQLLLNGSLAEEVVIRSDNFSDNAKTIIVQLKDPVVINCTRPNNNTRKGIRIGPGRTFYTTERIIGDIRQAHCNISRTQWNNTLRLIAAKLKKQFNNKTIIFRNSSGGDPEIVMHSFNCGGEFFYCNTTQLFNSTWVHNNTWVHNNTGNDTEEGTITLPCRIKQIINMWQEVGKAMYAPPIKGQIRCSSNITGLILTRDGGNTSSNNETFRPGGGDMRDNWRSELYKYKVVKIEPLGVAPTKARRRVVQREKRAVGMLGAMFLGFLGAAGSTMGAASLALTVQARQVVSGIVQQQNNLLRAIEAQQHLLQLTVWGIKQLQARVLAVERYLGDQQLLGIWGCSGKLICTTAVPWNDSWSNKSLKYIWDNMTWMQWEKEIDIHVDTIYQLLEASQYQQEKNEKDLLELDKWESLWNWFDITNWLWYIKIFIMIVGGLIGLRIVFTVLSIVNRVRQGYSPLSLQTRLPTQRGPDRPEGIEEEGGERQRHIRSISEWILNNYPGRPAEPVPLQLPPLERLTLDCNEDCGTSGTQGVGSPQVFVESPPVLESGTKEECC
# ASSAY_INFO: inhibitors of HIV fusion peptide binding, primary screen, biochemical, uHTS, fluorescence dequenching (AID 1986)
Activity calls are given as the source filed them. Cut-off read from the data, not from the text of the source: actives have a measured IC50 and inactives only a lower limit.

Take a look at these entries with their results.
{"columns": ["COMPOUND", "IC50"],
 "data": [
  ["O=C(O)CN1C(=O)/C(=C\\c2cc(Br)ccc2OCc2ccc(Cl)cc2)SC1=S", "14.3 µM (active)"],
  ["CCOC(=O)c1sc(N2C(=O)C(O)=C(C(=O)c3ccco3)C2c2cccc([N+](=O)[O-])c2)nc1C (stereo unspecified)", "19 µM (active)"],
  ["O=C(O)CCn1cc(/C=C/C(=O)c2ccc(Cl)cc2)c(-c2ccc(Br)cc2)n1", "21.4 µM (active)"],
  ["Cc1ccccc1N/N=C/c1sc(=O)n(Cc2cccc(C(=O)O)c2)c1Cl", "15.6 µM (active)"],
  ["COc1cc(/C=C2/C(=O)NN(c3ccc(Cl)cc3)C2=O)ccc1OC(=O)c1ccco1", "11.8 µM (active)"]
]}

Q: Using the record for `COc1ccccc1/C=C1\SC(=S)N(CCC(=O)Nc2ccc(C(=O)O)c(O)c2)C1=O` , report its IC50.
Ans: 14.5 µM (active)
